# Test Context: in tetrachloromethane, 332.95 K
Endpoint Name: solubility (mole fraction)
Answers are plain numbers.

For the molecule shown here, "O=C(O)COc1ccc(Cl)cc1Cl" , give the reported solubility (mole fraction).
0.00259

----------
# Test Context: in tetrachloromethane, 310.65 K
Endpoint Name: solubility (mole fraction)

For the molecule shown here, "O=C(O)COc1ccc(Cl)cc1Cl" , give the reported solubility (mole fraction).
0.000131

----------
# Test Context: in toluene, 323.15 K
Endpoint Name: solubility (mole fraction)
Give bare numbers.

For the compound shown here, "O=C(O)COc1ccc(Cl)cc1Cl" , give the reported solubility (mole fraction).
0.0109

----------
# Test Context: in toluene, 338.05 K
Endpoint Name: solubility (mole fraction)
Give bare numbers.

For the compound shown here, "O=C(O)COc1ccc(Cl)cc1Cl" , give the reported solubility (mole fraction).
0.0235
